Assay: chemical genetic growth profiling, strain panel (AID 1159580);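 note: tested at 20 µM; growth read once vehicle control cultures reached saturation at 30 °C; 1 = growth at the plate median or of vehicle wells; lower values mean less growth of the strain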
Conditions: S. cerevisiae deletion strains, growth OD, locus YNL175C, strain NOP13, stronger effect = lower value
Among all 5,500 compounds or so, about 2,000 (36%) were called active. About 18% were inconclusive and are not listed. Some of the results follow.
# normalized growth listing for each entry below

compound	normalized growth
COC(=O)C1C2CC3c4[nH]c5cc(OC)ccc5c4CCN3CC2CC(OC(=O)c2cc(OC)c(OC)c(OC)c2)C1OC (configuration not stated)	1 (inactive)
CC(/C=C/c1cccc(Oc2ccc(F)cc2)c1)N(O)C(N)=O (configuration not stated)	1 (inactive)
C[N+]1(C)C2CC(OC(=O)[C@H](CO)c3ccccc3)CC1C1OC12 (some centres not stated)	0.996 (inactive)
CC(C)(Oc1ccc(C2CC2(Cl)Cl)cc1)C(=O)O (configuration not stated)	0.98 (inactive)
O=C(O)C1CCNCC1	0.992 (inactive)
CCCCC#Cc1nc(N)c2ncn([C@@H]3O[C@H](C(=O)NCC)[C@@H](O)[C@H]3O)c2n1	0.98 (inactive)
C=CC(N)CCC(=O)O (configuration not stated)	0.99 (inactive)
O=C(O)c1cc2cc(Cc3cccnc3)ccc2o1	1 (inactive)
N=C1Sc2ccccc2C2=NCCCN12	1.04 (inactive)
CCCCCCCCCCCCCC(=O)O[C@@H]1[C@@H](C)[C@@]2(O)[C@@H](C=C(CO)C[C@@]3(O)C(=O)C(C)=C[C@@H]23)C2C(C)(C)[C@@]21OC(C)=O (some centres not stated)	1.01 (inactive)
CC[C@H](C)C(=O)O[C@H]1CCC=C2C=C[C@H](C)[C@H](CC[C@@H]3C[C@@H](O)CC(=O)O3)[C@H]21	0.985 (inactive)
NC(N)=NCCC[C@H](N)C(=O)O	0.981 (inactive)
